Target: T1, CAPRIN-1 protein expressed on the membrane surface of human cancer cells (human, UniProt Q14444 2-709)
T1 sequence (looked up): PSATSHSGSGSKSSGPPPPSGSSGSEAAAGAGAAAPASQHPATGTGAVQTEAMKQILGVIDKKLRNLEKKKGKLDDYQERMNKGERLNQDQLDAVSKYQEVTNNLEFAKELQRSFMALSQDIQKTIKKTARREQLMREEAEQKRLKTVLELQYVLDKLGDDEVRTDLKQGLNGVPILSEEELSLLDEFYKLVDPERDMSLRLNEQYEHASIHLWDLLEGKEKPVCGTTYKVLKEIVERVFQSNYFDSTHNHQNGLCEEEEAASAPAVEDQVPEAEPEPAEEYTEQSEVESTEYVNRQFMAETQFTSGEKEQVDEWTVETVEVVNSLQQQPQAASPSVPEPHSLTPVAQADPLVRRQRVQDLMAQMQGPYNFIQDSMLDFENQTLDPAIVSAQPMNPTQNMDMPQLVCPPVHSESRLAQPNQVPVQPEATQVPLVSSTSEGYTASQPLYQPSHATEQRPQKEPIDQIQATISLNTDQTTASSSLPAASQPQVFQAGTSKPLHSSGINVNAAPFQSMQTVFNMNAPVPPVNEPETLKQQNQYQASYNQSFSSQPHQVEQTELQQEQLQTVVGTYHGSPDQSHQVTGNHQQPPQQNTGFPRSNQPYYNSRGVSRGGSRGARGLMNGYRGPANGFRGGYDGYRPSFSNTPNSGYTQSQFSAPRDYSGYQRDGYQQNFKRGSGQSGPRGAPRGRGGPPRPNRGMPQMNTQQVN
Assay: cell-based or functional assay
MEASURED_ENDPOINT: ADCC cytotoxic activity (51Cr release) on BT-474

BINDER: humanized antibody #6 (antibody, V domains shown) VH: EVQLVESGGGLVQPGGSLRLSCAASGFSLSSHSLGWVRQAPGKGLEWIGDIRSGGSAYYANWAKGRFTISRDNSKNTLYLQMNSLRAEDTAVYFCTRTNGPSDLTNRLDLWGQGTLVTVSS VL: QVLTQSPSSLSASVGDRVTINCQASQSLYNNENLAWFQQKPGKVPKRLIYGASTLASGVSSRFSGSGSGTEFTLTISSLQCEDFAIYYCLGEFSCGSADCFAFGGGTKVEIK
EXPERIMENTAL_RESULT: ≥ 54%
//
BINDER: humanized antibody #2 (antibody, V domains shown) VH: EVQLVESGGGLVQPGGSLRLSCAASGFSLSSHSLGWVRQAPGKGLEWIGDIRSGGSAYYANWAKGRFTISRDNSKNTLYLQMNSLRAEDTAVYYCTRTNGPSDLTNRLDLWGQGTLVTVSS VL: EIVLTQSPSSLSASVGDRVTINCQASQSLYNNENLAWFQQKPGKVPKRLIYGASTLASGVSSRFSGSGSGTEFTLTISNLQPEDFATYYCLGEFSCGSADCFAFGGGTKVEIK
EXPERIMENTAL_RESULT: ≥ 50%
//
BINDER: humanized antibody #10 (antibody, V domains shown) VH: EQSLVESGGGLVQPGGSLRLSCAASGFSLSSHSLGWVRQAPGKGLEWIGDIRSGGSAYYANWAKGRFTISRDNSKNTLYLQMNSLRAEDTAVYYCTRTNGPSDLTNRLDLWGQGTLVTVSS VL: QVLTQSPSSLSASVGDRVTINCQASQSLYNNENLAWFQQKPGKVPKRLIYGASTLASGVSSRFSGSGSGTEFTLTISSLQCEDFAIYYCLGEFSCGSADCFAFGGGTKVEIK
EXPERIMENTAL_RESULT: ≥ 54%
